Let's look at some binders and their measured EC50.
Biological target: T1, His-human LIGHT (human)
T1 construct: also called His-huLIGHT; free LIGHT
T1 chain: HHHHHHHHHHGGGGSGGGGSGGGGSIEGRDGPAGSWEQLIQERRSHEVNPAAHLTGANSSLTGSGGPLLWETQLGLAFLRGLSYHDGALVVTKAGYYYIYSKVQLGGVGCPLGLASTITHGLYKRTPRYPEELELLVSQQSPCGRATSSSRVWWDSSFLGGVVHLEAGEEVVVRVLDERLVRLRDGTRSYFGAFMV
Test: ELISA, His-huLIGHT coated
The response must be a number in µg/mL with no trailing unit.

These recorded examples may help you get a feel for the data.
# lookup: EC50 of hum_LT-m37-7 (antibody, human IgG4, V domains shown, humanized from LT-m37) VH: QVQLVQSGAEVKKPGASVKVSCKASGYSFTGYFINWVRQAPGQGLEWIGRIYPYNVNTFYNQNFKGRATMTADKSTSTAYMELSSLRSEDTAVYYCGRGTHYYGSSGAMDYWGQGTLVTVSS VL: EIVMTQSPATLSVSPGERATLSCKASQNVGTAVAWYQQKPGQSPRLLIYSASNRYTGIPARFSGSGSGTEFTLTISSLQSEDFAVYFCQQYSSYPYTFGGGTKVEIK
0.0801

# lookup: EC50 of hum_LT-m37-8 (antibody, human IgG4, V domains shown, humanized from LT-m37) VH: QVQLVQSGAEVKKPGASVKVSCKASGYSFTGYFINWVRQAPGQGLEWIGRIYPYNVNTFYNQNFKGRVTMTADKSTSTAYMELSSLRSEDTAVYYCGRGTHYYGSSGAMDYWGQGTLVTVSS VL: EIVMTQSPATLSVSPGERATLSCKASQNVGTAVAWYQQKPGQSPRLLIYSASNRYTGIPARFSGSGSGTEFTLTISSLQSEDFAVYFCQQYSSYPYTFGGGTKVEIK
0.0795

---
# lookup: EC50 of hum_LT-m37-2 (antibody, human IgG4, V domains shown, humanized from LT-m37) VH: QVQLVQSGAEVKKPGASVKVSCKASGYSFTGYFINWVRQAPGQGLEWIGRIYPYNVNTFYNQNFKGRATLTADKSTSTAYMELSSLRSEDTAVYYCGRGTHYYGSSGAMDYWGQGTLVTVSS VL: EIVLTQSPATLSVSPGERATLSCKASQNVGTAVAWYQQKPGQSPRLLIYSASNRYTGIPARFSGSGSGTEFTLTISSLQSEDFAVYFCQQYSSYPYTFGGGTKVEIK
0.081
